Source: paper PMC10222209

test system: 22RV1 cells; experiment: Antiproliferative assay (resazurin, 72 h) in 22RV1 cells; assay type: cell-based; conditions: Homo sapiens; antiproliferation, 22RV1, 72 h, mean of three independent experiments; read-out: IC50 (μM) 22RV1
reportedEndpoint: IC50 (µM)
Report only the number, with the unit µM understood.

Identify the reported IC50 for the following entry. O=C(Nc1ccc(C(F)(F)F)c(C(F)(F)F)c1)c1cc(F)c(F)cc1O
0.382

Identify the reported IC50 for the following entry. O=C(Nc1ccc([N+](=O)[O-])c(Cl)c1)c1ccc(Cl)cc1O
0.713

Identify the reported IC50 for the following entry. O=C(Nc1ccc(C(F)(F)F)cc1Cl)c1cc(F)ccc1O
0.375

Identify the reported IC50 for the following entry. COc1cc([N+](=O)[O-])ccc1NC(=O)c1ccc(Cl)cc1O
0.714

Identify the reported IC50 for the following entry. O=C(Nc1ccc([N+](=O)[O-])c(C(F)(F)F)c1)c1cccc(Br)c1
0.306

Identify the reported IC50 for the following entry. Cc1cc([N+](=O)[O-])ccc1NC(=O)c1cc(Cl)ccc1O
0.248

Identify the reported IC50 for the following entry. Cc1cc([N+](=O)[O-])ccc1NC(=O)c1ccc(Cl)cc1O
0.676

Identify the reported IC50 for the following entry. O=C(Nc1ccc([N+](=O)[O-])cc1)c1cc(Cl)ccc1O
0.581

Identify the reported IC50 for the following entry. O=C(Nc1ccc([N+](=O)[O-])c(F)c1)c1ccc(Cl)cc1O
0.924

Identify the reported IC50 for the following entry. O=C(Nc1ccc([N+](=O)[O-])c(F)c1)c1cc(Cl)ccc1O
0.28

Identify the reported IC50 for the following entry. N#Cc1ccc(NC(=O)c2cc(F)ccc2O)c(Cl)c1
3.23

Identify the reported IC50 for the following entry. COc1cc(NC(=O)c2cc(Cl)ccc2O)ccc1[N+](=O)[O-]
0.483

Identify the reported IC50 for the following entry. COc1cc(NC(=O)c2ccc(Cl)cc2O)ccc1[N+](=O)[O-]
2.11

Identify the reported IC50 for the following entry. CC(=O)Oc1ccc(Cl)cc1C(=O)Nc1ccc([N+](=O)[O-])cc1Cl
0.481

Identify the reported IC50 for the following entry. O=C(Nc1ccnc(C(F)(F)F)c1)c1cc(F)ccc1O
0.581

Identify the reported IC50 for the following entry. O=C(Nc1ccc(C(F)(F)F)c(C(F)(F)F)c1)c1cc(F)ccc1O
0.0997

Identify the reported IC50 for the following entry. N#Cc1ccc(O)c(C(=O)Nc2ccc(C(F)(F)F)c(C(F)(F)F)c2)c1
1.04

Identify the reported IC50 for the following entry. O=C(Nc1ccc(C(F)(F)F)c(C(F)(F)F)c1)c1cc(Cl)ccc1O
0.258

Identify the reported IC50 for the following entry. O=C(Nc1ccc([N+](=O)[O-])cc1F)c1ccc(Cl)cc1O
0.467

Identify the reported IC50 for the following entry. O=C(Nc1ccc(C(F)(F)F)c(C(F)(F)F)c1)c1cc(Br)ccc1O
0.307

Identify the reported IC50 for the following entry. N#Cc1cc(C(F)(F)F)ccc1NC(=O)c1cc(F)ccc1O
7.92

Identify the reported IC50 for the following entry. O=C(Nc1ccc(C(F)(F)F)cc1F)c1cc(F)ccc1O
0.196

Identify the reported IC50 for the following entry. N#Cc1ccc(NC(=O)c2cc(F)ccc2O)c(F)c1
0.184

Identify the reported IC50 for the following entry. O=C(Nc1ccc([N+](=O)[O-])c(C(F)(F)F)c1)c1cccc(Cl)c1
0.557

Identify the reported IC50 for the following entry. O=C(Nc1ccc([N+](=O)[O-])c(C(F)(F)F)c1)c1cc(Cl)ccc1O
0.556

Identify the reported IC50 for the following entry. COc1cc([N+](=O)[O-])ccc1NC(=O)c1cc(Cl)ccc1O
0.158

Identify the reported IC50 for the following entry. N#Cc1cc(NC(=O)c2cc(F)ccc2O)ccc1C(F)(F)F
0.24

Identify the reported IC50 for the following entry. Cc1cc(NC(=O)c2ccc(Cl)cc2O)ccc1[N+](=O)[O-]
0.976

Identify the reported IC50 for the following entry. O=C(Nc1ccc(C(F)(F)F)nc1)c1cc(F)ccc1O
0.547

Identify the reported IC50 for the following entry. O=C(Nc1ccc(C(F)(F)F)c(C(F)(F)F)c1)c1cc(C(F)(F)F)ccc1O
0.111

Identify the reported IC50 for the following entry. O=C(Nc1ccc([N+](=O)[O-])c(C(F)(F)F)c1)c1ccc(Cl)cc1O
0.424

Identify the reported IC50 for the following entry. O=C(Nc1ccc([N+](=O)[O-])cc1Cl)c1cc(Cl)ccc1OS(=O)(=O)C(F)(F)F
0.252

Identify the reported IC50 for the following entry. O=C(Nc1ccc([N+](=O)[O-])cc1Cl)c1cc(Cl)ccc1O [Niclosamide, reference compound]
0.284

Identify the reported IC50 for the following entry. Cc1cc(NC(=O)c2cc(Cl)ccc2O)ccc1[N+](=O)[O-]
0.324

Identify the reported IC50 for the following entry. COc1cc([N+](=O)[O-])ccc1NC(=O)c1cc(Br)ccc1O
0.242

Identify the reported IC50 for the following entry. O=C(Nc1ccc([N+](=O)[O-])cc1F)c1cc(Cl)ccc1O
0.271

Identify the reported IC50 for the following entry. O=C(Nc1ccc(C(F)(F)F)c(C(F)(F)F)c1)c1cccc(Cl)c1
0.32
